Recorded HC50 at 1 hour by entry
run-description: Hemolytic assay
Assay type: cell-based
condition-info: chicken, red blood cells; hemolysis; read-out: LC50 Chicken RBCs
Residues, ends and D or L forms follow the SMILES beside them.
metric: HC50 at 1 hour

CC[C@H](C)[C@H](NC(=O)[C@H](CCCCN)NC(=O)[C@H](CCCNC(=N)N)NC(=O)[C@H](CC(C)C)NC(=O)[C@H](Cc1c[nH]c2ccccc12)NC(=O)[C@H](Cc1c[nH]c2ccccc12)NC(=O)[C@@H](N)Cc1c[nH]c2ccccc12)C(=O)N[C@@H](Cc1c[nH]c2ccccc12)C(N)=O [TetraF2W-RK, WWWLRKIW] (H-WWWLRKIW-NH2; N-terminus assumed)	35 µM
CC[C@H](C)[C@H](NC(=O)[C@H](CCCNC(=N)N)NC(=O)[C@H](CCCNC(=N)N)NC(=O)[C@H](CC(C)C)NC(=O)[C@H](Cc1c[nH]c2ccccc12)NC(=O)[C@H](Cc1c[nH]c2ccccc12)NC(=O)[C@@H](N)Cc1c[nH]c2ccccc12)C(=O)N[C@@H](Cc1c[nH]c2ccccc12)C(N)=O [TetraF2W-RR, WWWLRRIW] (H-WWWLRRIW-NH2; N-terminus assumed)	55 µM
